Experiment: Inhibition of bacterial beta-lactamase CMY-2 using nitrocefin as substrate incubated for 20 mins
Set-up: species or system Bacteria
pIC50: −log10 of the molar value.
This listing pairs compounds with measured pIC50.
value-type: pIC50

• Cc1nnc(C[S@@+]([O-])[C@@H]2CC[C@@H]3CN2C(=O)N3O[C@H](F)C(=O)[O-])o1.[Na+] = 7.44
• NC(=O)[C@@H]1CC[C@@H]2CN1C(=O)N2OS(=O)(=O)O [AVIBACTAM] = 7.23
• C[S@@+]([O-])[C@@H]1CC[C@@H]2CN1C(=O)N2O[C@H](F)C(=O)[O-].[Na+] = 7.55
• NCC[S@@+]([O-])[C@@H]1CC[C@@H]2CN1C(=O)N2O[C@H](F)C(=O)O.O=C(O)C(F)(F)F = 6.37
• CC(=O)NCC[S@@+]([O-])[C@@H]1CC[C@@H]2CN1C(=O)N2O[C@H](F)C(=O)[O-].[Na+] = 7.00
• O=C([O-])[C@@H](F)ON1C(=O)N2C[C@H]1CC[C@H]2[S@+]([O-])CCO.[Na+] = 7.24
• NC(=O)/C(C[S@@+]([O-])[C@@H]1CC[C@@H]2CN1C(=O)N2O[C@H](F)C(=O)[O-])=N\O.[Na+] (stereo in doubt) = 6.84
• NS(=O)(=O)[C@@H]1CC[C@@H]2CN1C(=O)N2O[C@H](F)C(=O)[O-].[Na+] = 5.95
